System: Staphylococcus aureus
method: Antibacterial activity against Staphylococcus aureus Smith ATCC 13709 in presence of 20% mouse serum by CLSI microdilution method
Assay type: functional
Exercise: for every item that follows, state its recorded MIC.
State the answer as a number, implicitly in µg/mL.

Asked: Please report the recorded MIC for COc1ccc(OC)c(-c2cc3nc(N)nc(N)c3cc2C)c1 .
Given back: 1

Asked: Next record, please: Nc1nc(N)c2ccc(-c3ccccc3)cc2n1
Given back: 64

Asked: // query: COc1cc(Cc2cnc(N)nc2N)cc(OC)c1OC [TRIMETHOPRIM]
Given back: 1

Asked: Same lookup for CCOc1ccc2[nH]ccc2c1-c1cc2nc(N)nc(N)c2cc1C , please.
Given back: 1

Asked: Entry CCOc1ccc(-c2cccnc2)cc1-c1ccc2c(N)nc(N)nc2c1 please
Given back: 8

Asked: Another compound to check: COc1ccc(-c2cc3nc(N)nc(N)c3cc2C)cc1OC
Given back: 0.5
